Field: log10(IC50). System: Ribosomal protein S6 kinase alpha-3 (Homo sapiens, UniProt P51812). Provenance: assorted publications.
Sequence (P51812 whole entry): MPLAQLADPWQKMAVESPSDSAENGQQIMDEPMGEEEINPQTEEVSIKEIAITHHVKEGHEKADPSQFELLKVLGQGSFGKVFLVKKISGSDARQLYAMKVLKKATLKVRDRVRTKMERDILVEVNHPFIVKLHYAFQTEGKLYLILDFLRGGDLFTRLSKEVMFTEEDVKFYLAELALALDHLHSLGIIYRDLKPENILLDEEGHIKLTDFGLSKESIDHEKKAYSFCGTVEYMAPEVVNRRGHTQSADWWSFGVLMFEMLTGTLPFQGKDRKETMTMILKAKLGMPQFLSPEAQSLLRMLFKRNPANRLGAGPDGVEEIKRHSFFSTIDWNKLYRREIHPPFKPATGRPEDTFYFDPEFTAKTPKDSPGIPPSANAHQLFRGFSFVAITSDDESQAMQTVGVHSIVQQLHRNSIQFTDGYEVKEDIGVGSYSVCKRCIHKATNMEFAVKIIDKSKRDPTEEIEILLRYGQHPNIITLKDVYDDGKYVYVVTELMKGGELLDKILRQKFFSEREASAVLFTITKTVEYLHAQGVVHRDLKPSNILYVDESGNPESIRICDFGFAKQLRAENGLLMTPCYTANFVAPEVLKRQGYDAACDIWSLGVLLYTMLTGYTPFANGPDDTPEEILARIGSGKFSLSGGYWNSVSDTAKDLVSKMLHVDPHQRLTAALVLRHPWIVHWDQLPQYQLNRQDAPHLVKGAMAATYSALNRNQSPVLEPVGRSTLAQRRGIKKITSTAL
Log scale reminder: IC50 in µM, then log10 taken.

Below, 10 molecules whose answers are already recorded.
Cc1cn2c(-c3cn[nH]c3)cnc2c(Nc2cc(CN3CCCCC3)ns2)n1
-0.44
Cc1cn2c(-c3cnn(CC(=O)Nc4ccncc4F)c3)cnc2c(Nc2cc(CN3CCCC(C)C3)ns2)n1 (configuration not stated)
0.83
Oc1c(F)cc(-c2cnccc2-c2ccc(F)cc2)cc1F
-1.03
CNc1cc(-c2ccc(N3CCN(C)CC3)cc2)c(-c2cc(F)c(O)c(F)c2)cn1
-1.85
O=C(O)c1ccc(/N=N/c2ccc(O)c3ncccc23)cc1
0.54
CC1(C)CNC(=O)c2cc3ccc(C(=O)Nc4cc(C(C)(C)C)on4)nc3n2C1
-0.76
CN1CCN(c2ccc(-c3ccncc3-c3cc(F)c(O)c(F)c3)cc2)CC1
-2.30
NCCOc1cccc(-c2ccncc2-c2cc(F)c(O)c(F)c2)c1
-2.40
Nc1nc2nc(O)nc(O)c2s1
1.00
COCCCn1cc(C2=C(c3ccccc3O)C(=O)NC2=O)c2cccnc21
0.30

Asked: Endpoint output: log10(IC50) of `N#Cc1nc(/N=N/c2ccccc2)[nH]c1O` . Value?
Given back: 0.85

Asked: Endpoint output: log10(IC50) of `Oc1c(F)cc(-c2cnccc2C2CCOCC2)cc1F` . Value?
Given back: -0.89

Asked: Endpoint output: log10(IC50) of `COc1ccc(-c2ccncc2-c2cc(F)c(O)c(F)c2)cc1` . Value?
Given back: -2.10

Asked: Endpoint output: log10(IC50) of `CC(=O)c1ccc(N2CCN(C(=O)CN3CC[C@@H](C(=O)Nc4ccc(O)c(Cl)c4)C3)CC2)cc1` . Value?
Given back: 1.43

Asked: Endpoint output: log10(IC50) of `CN1CCN(c2cccc(-c3ccncc3-c3cc(F)c(O)c(F)c3)c2)CC1` . Value?
Given back: -2.40

Asked: Endpoint output: log10(IC50) of `CNc1ncc(-c2cc(F)c(O)c(F)c2)c(-c2ccc(C)cc2)n1` . Value?
Given back: -1.89

Asked: Endpoint output: log10(IC50) of `COc1cccc(-c2ccncc2-c2cc(F)c(O)c(F)c2)c1` . Value?
Given back: -1.34

Asked: Endpoint output: log10(IC50) of Cc1cn2c(-c3cnn(CC(=O)Nc4ccncc4)c3)cnc2c(Nc2cc(CN3CCCC(C)C3)ns2)n1 (configuration not stated) . Value?
Given back: 0.04

Asked: Endpoint output: log10(IC50) of `CSc1cn2c(-c3cn[nH]c3)cnc2c(Nc2cc(C)ns2)n1` . Value?
Given back: 0.12

Asked: Endpoint output: log10(IC50) of `CNc1nccc(-c2nc(C3CCNCC3)[nH]c2-c2cccc(C(F)(F)F)c2)n1` . Value?
Given back: 1.88

* * *

Field: IC50. System: Ribosomal protein S6 kinase alpha-3 (Homo sapiens). Provenance: assorted publications.
Answer format: numeric, nM implied, no suffix.

O=C1c2ccccc2C(=O)N1CNc1ccc(N2CCOCC2)cc1
950

Asked: Endpoint output: IC50 of `Cc1ccc(Nc2cc(-c3ccc(N4CCN(C)CC4)cc3)c(-c3cc(F)c(O)c(F)c3)cn2)cc1` . Value?
Given back: 6

Asked: Endpoint output: IC50 of `Oc1c(F)cc(-c2cnccc2-c2ccccc2)cc1F` . Value?
Given back: 60

Asked: Endpoint output: IC50 of `COc1cc(/C=N/n2cnnc2)cc(I)c1O` . Value?
Given back: 16200

Asked: Endpoint output: IC50 of `CC(C)Nc1ncc(-c2cc(F)c(O)c(F)c2)c(-c2ccc(N3CCN(C)CC3)cc2)n1` . Value?
Given back: 20

Asked: Endpoint output: IC50 of `Cc1cn2c(-c3cn[nH]c3)cnc2c(Nc2cc([C@@H](C)N3C[C@@H](C)O[C@@H](C)C3)ns2)n1` . Value?
Given back: 330

Asked: Endpoint output: IC50 of `N#Cc1cnc(Nc2cc(NC[C@H]3CNCCO3)c(C(F)(F)F)cn2)cn1` . Value?
Given back: 361

* * *

Field: IC50. System: Ribosomal protein S6 kinase alpha-3 (Homo sapiens). Provenance: assorted publications.

Below, 5 compounds whose answers are already recorded.
Oc1ccc(NCn2nnc3ccccc32)cc1
480 nM
Oc1c(F)cc(-c2cnccc2-c2ccc(N3CCNCC3)cc2)cc1F
6 nM
Oc1ccc(-c2ccncc2-c2cc(F)c(O)c(F)c2)cc1
50 nM
Cc1cn2c(-c3cnn(CC(=O)Nc4cccc(F)c4F)c3)cnc2c(Nc2cc(CN3CCCCC3)ns2)n1
4300 nM
CCS(=O)(=O)N1CCN(c2ccc(Nc3ncc(C(N)=O)c(NC4CC4)n3)cc2)CC1
4 nM

Asked: Endpoint output: IC50 of Cc1cn2c(-c3cnn(CC(=O)NCc4cccs4)c3)cnc2c(Nc2cc(CN3CCCC(C)C3)ns2)n1 (stereo not drawn) . Value?
Given back: 7700 nM

Asked: Endpoint output: IC50 of `CC1(C)OCC(=O)Nc2cc(Nc3nc(NCC(F)(F)F)c4occc4n3)ccc21` . Value?
Given back: > 10000 nM

Asked: Endpoint output: IC50 of `Oc1ccc(-c2cn[nH]c2-c2ccc(O)cc2)cc1` . Value?
Given back: 24 nM

Asked: Endpoint output: IC50 of `CC(=O)CO[C@@H]1[C@@H](OCC(C)=O)[C@@H](O)[C@H](Oc2c(-c3ccc(O)cc3)oc3cc(O)cc(O)c3c2=O)O[C@H]1C` . Value?
Given back: 252 nM

* * *

Field: IC50. System: Ribosomal protein S6 kinase alpha-3 (Homo sapiens). Provenance: assorted publications.
Answer format: numeric, nM implied, no suffix.

Nc1n[nH]c(N)c1/N=N/c1ccc(S(N)(=O)=O)cc1
5500
CN1CCN(c2ccc(-c3cc(N)ncc3-c3cc(F)c(O)c(F)c3)cc2)CC1
6

Continue with the next molecule.
Asked: Endpoint output: IC50 of `CCc1n[nH]c2ncnc(N3CCN(c4cc(Cl)cc(NCCN(C)C)c4C)CC3)c12` . Value?
Given back: 68
